Biological target: EP2 (Homo sapiens (Human), UniProt P43116);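 also: antagonism of PGE2-stimulated cAMP accumulation in SF295 human glioblastoma cells with endogenous EP2, cAMP read by HTRF, expressed relative to DMSO control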
Sequence (P43116 whole entry): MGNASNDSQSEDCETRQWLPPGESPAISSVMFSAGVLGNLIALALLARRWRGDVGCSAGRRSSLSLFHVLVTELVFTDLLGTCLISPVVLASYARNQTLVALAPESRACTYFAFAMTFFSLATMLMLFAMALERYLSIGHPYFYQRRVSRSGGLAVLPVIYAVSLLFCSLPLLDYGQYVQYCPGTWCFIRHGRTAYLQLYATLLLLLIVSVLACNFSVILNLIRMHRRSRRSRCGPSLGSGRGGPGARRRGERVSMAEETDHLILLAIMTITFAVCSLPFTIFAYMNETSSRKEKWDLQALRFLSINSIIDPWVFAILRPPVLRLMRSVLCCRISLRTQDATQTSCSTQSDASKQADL
Mark fulfilled for IC50 under 20 nM, not fulfilled if at or over.

Examples with answers:
Check if IC50 falls below 20 nM for CCOc1cc(-c2cc(NCCn3c(C#N)cc4c(OC)ccc(F)c43)ncn2)sc1C(=O)NS(=O)(=O)C1CC1 .
not fulfilled

Param item: Cc1nc(CCC(=O)O)oc1-c1ccc(-c2cc(NCCn3c(C)cc4c(C)ccc(F)c43)ncn2)cc1
not fulfilled

Entry to check: Cc1cc2c(F)c(F)cc(F)c2n1CCNc1cc(-c2ccc(C(=O)O)c(CC(C)C)c2)ncn1
fulfilled

Consider next the compound COc1cc(F)cc2c1cc(C)n2CCNc1cc(-c2ccc(-c3nccs3)cc2)ncn1 in the same way.
fulfilled

New cases:
Please let me know if COc1cc(F)cc2c1cc(C)n2CCNc1cc(-c2ccc(-c3ncnn3C)cc2)ncn1 shows IC50 below 20 nM.
not fulfilled
